measured-quantity: melting point

Prompt: melting point lookup needed for CC(C)c1nc(COCc2ccccc2)n(Cc2ccccc2)c1Sc1cccc(Cl)c1 , thanks.
Response: 120 to 122 °C

Prompt: melting point lookup needed for COc1cc2ncc(N[C@@H]3C[C@@H]4C[C@H]3C[C@H]4O)nc2cc1OC , thanks.
Response: 190 to 192 °C

Prompt: melting point lookup needed for COc1ccc2c(c1)sc1nc(C)c(CO)n12 , thanks.
Response: 204 °C

Prompt: melting point lookup needed for N#Cc1ccc(N(Cc2ccc(OS(N)(=O)=O)cc2)n2cnnc2)cc1-c1ccc(F)cc1 , thanks.
Response: 197 to 199 °C

Prompt: melting point lookup needed for N#Cc1sc2ccc(Br)cc2c1-c1ccccc1 , thanks.
Response: 145 to 146 °C

Prompt: melting point lookup needed for Cc1cccc(C(=O)N(NC(C)C)C(C)(C)C)c1 , thanks.
Response: 107 to 109 °C

Prompt: melting point lookup needed for CCCCn1nnnc1-c1c(O)ccc(-c2cccc(C(=O)OC)c2)c1O , thanks.
Response: 93 to 97 °C

Prompt: melting point lookup needed for COC(=O)CCc1cc(C(=O)c2cccc(C(=O)OC)n2)ccc1O , thanks.
Response: 121 to 122 °C

Prompt: melting point lookup needed for CN1Cc2cc(Br)cnc2N(C)C1=O , thanks.
Response: 119 to 120 °C

Prompt: melting point lookup needed for CCOC(=O)c1cnn2c1nc(NC(C)CC)c1cnc3c(cnn3CC)c12 (stereo not given) , thanks.
Response: 94 to 97 °C

###

measured-quantity: melting point

Prompt: melting point lookup needed for O=C(Cc1ccccc1)Nc1ccc(-n2nc(C3CC3)cc2C2CC2)cc1 , thanks.
Response: 133 to 138 °C

Prompt: melting point lookup needed for CC(=NO)c1ccc2c(c1)CCCN2C(=O)OC(C)(C)C , thanks.
Response: 127 to 129 °C

Prompt: melting point lookup needed for COC(=O)CCCC#Cc1cc(C)c2oc(=O)n(C)c2c1 , thanks.
Response: 97 to 98 °C

Prompt: melting point lookup needed for CC(C)Cn1c(C(=O)O)c(OCCCC(F)(F)F)c2cc(OCc3ccccc3)ccc2c1=O , thanks.
Response: 130 to 131 °C

Prompt: melting point lookup needed for CCCCCCCCCCCCCCCCCCNP1OCC2(CO1)COP(NCCCCCCCCCCCCCCCCCC)OC2 (stereo not given) , thanks.
Response: 67 to 70 °C

###

Answer each item with its documented melting point.

Prompt: melting point lookup needed for C[C@H](CI)[C@H]1CC[C@H]2[C@@H](O[Si](C)(C)C(C)(C)C)CCC[C@]12C , thanks.
Response: 40 to 41 °C

Prompt: melting point lookup needed for COc1cc(C(=O)NNC(=O)c2occ(-c3ccccc3)c2-c2ccccc2)ccc1OCc1ccccc1 , thanks.
Response: 203 to 204 °C

Prompt: melting point lookup needed for CC(C)N(Cc1c(-c2ccccc2)sc(N2C(=O)c3ccccc3C2=O)c1C(=O)c1ccc(Cl)cc1)C(C)C , thanks.
Response: 168 to 170 °C

Prompt: melting point lookup needed for COc1ccc(Cl)c(NC(=O)Cc2ccc(Cl)cc2)c1 , thanks.
Response: 149 to 151 °C

###

Answer each item with its documented melting point.
Reply numerically in °C, unit not repeated.

Prompt: melting point lookup needed for CC(=O)N1c2ccc(-c3ccc(C=O)cc3)cc2C(NC=O)CC1C (stereo not given) , thanks.
Response: 85.6

Prompt: melting point lookup needed for Cn1c(=O)cc(-c2cccc(Cl)c2)c2cc(C(C)(c3ccc(Cl)cc3)n3ccnc3)ccc21 (stereo not given) , thanks.
Response: 120

These data points were gathered from a melting point compilation (Tetko et al.; mined from patent text by program, amines drawn as free bases though some values may be those of a salt).
